system.tested: T1, biotinylated recombinant human IL-12Rβ2 (human, UniProt Q99665 24-622, random biotinylated)
T1 construct: Recombinant protein produced in-house, biotinylated; also called hIL-12RB2; human IL-12RB2
T1 sequence: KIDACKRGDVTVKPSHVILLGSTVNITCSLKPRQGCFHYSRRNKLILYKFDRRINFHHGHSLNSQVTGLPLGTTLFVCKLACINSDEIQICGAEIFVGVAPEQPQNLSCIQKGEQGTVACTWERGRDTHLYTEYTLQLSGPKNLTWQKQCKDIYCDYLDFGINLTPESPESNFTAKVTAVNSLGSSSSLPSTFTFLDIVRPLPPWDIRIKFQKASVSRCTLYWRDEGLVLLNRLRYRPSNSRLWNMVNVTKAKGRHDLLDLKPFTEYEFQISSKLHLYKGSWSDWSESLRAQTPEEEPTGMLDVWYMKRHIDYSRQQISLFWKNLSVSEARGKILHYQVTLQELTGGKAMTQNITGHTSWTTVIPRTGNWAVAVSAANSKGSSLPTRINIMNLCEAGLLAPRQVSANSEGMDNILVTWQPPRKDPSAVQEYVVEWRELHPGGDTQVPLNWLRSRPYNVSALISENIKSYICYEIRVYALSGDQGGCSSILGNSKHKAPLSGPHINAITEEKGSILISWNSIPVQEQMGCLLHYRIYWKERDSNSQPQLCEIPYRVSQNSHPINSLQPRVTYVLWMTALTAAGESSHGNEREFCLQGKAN
assay.explanation: BLI (Octet), periplasmic extract on biotinylated hIL-12Rβ2 on streptavidin tips
measured.attribute: Response

// worked examples, Response included
binder="anti-IL-12Rβ2 VHH clone 21053 (VHH, not shown: small tags and cut ends, tested as periplasmic extract; also called 3CRHM14) VHH: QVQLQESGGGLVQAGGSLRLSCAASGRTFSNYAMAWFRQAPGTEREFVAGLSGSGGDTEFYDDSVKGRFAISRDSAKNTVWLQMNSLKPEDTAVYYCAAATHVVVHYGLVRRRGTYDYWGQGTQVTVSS" observed_measurement=1.19
binder="anti-IL-12Rβ2 VHH clone 21051 (VHH, not shown: small tags and cut ends, tested as periplasmic extract; also called 3CAHM40) VHH: QVQLQESGGGSVQAGGSLRLSCAVSGRTVSDYAMGWFRQAPGKEREFVAAMSSSETTVYPNSMKGRITISRDNAKNAVYLQLNALKPEDTAVYYCSMGPIATFQGLARQNEYHYWGQGTQVTVSS" observed_measurement=1.32
binder="anti-IL-12Rβ2 VHH clone 21063 (VHH, not shown: small tags and cut ends, tested as periplasmic extract; also called 3CRHM133) VHH: QVQLQESGGGSVQAGGSLRLSCAVSGRPVSDYAMGWFRQAPGKEREFVAALSASDTTVYPNSVKGRITISRDNAKNAVDLQMNALKPEDTAVYYCAMGPIGTFQGLARQNEYHYWGQGTQVTVSS" observed_measurement=1.13
binder="anti-IL-12Rβ2 VHH clone 20372 (VHH, not shown: small tags and cut ends, tested as periplasmic extract; also called 2CRH82) VHH: QVQLQESGGGLVQAGGSLRLSCAASARTESMYAMAWFRQAPGKEREIVAGIIQSGGTTYISDYMKGRFSIDRGNAENTVYLQMDSLKPEDTAVYSCAAKVSSGTPSDIQISQSRWYDHWGQGTQVTVSS" observed_measurement=0.426
binder="anti-IL-12Rβ2 VHH clone 21060 (VHH, not shown: small tags and cut ends, tested as periplasmic extract; also called 3CRHM73) VHH: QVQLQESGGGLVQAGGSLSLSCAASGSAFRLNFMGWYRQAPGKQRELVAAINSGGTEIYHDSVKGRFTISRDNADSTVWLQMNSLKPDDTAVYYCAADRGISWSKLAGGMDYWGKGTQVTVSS" observed_measurement=1.45
binder="anti-IL-12Rβ2 VHH clone 20370 (VHH, not shown: small tags and cut ends, tested as periplasmic extract; also called 2CRH76) VHH: QVQLQESGGGLVQTGGSLRLSCVASGRTFNWSAMGWFRQPPGKEREVVATISGGGTSAYYADSVKGRFTISRDGAKNTLYLQMNSLKPEDTAVYYCAADRVDYRMTLTQNGNHYWGQGTQVTVSS" observed_measurement=0.479

Dear colleague, could you please provide Response for the binders listed below?
1. anti-IL-12Rβ2 VHH clone 21057 (VHH, not shown: small tags and cut ends, tested as periplasmic extract; also called 3CRHM35) VHH: QVQLQESGGGLVQAGGSLRLSCAASGRTFSNYAMAWFRQAPGTEREFVAGLSGSGGDTAFYDNSVMGRFTISRDSAKNTMWLQINNLKPEDTAVYYCAAATHVVVNYGLVRRRGTYDYWGQGTQVTVSS
2. anti-IL-12Rβ2 VHH clone 21065 (VHH, not shown: small tags and cut ends, tested as periplasmic extract; also called 3CRHM240) VHH: QVQLQESGGGSVQAGGSLRLSCAVSGRTVSDYAMGWFRQAPGKEREFVVAMSSSETTVYTNSVKGRITISRDNAKNAVYLQMNALKPEDTAVYYCSMGPITTFQGLARQNEYHYWGQGTQVTVSS

Result:
1.36
1.5
